Please respond with reported inhibition for every item in the list.
Target: PI3-kinase p110-delta/p85-alpha (Homo sapiens) (UniProt P27986+O00329)
Assay: Inhibition of human PI3K p110delta/p85alpha at 10 uM using phosphatidylinositol 4,5-bisphosphate as substrate after 30 mins by HTRF assay relative to control
Assay type: protein-complex assay
Please respond with the number in % and leave the unit unwritten.

So, C[C@H]1COCCN1c1cc(-c2ccc(NC(=O)Nc3ccncc3)cc2)nn2ccnc12 ? Its inhibition was 29

So, C[C@H]1COCCN1c1cc(-c2ccc(NC(=O)Nc3cccnc3)cc2)nn2ccnc12 ? Its inhibition was 19

So, COc1ccc(-c2ccc3c(N4CCOC[C@@H]4C)nc(N4CCOC[C@@H]4C)nc3n2)cc1CO ? Its inhibition was 59

So, Oc1cccc(-c2nc(N3CCOCC3)c3oc4ncccc4c3n2)c1 ? Its inhibition was 96

====

Target: PI3K p110 beta/p85 alpha (Homo sapiens) (UniProt P27986+P42338)
Sequence (P27986 2-724 limits assumed): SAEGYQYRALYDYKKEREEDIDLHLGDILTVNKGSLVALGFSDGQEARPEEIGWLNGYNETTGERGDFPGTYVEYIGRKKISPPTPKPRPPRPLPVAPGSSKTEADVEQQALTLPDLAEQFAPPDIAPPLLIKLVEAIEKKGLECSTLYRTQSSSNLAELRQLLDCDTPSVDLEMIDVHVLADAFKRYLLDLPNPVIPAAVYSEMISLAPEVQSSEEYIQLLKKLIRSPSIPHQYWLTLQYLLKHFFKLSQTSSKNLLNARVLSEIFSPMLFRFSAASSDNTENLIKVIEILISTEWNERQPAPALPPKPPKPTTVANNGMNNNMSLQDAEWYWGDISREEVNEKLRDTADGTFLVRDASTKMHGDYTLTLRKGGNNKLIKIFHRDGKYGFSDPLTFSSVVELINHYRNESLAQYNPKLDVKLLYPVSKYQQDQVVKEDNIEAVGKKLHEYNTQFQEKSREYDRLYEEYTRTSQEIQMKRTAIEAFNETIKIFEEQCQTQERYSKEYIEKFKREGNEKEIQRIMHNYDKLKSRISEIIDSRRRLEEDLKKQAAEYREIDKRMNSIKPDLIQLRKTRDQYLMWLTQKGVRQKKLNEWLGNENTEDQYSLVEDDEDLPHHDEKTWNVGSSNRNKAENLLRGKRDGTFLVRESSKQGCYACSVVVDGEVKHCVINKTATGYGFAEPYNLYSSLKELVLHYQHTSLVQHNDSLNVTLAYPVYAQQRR
Sequence (P42338 whole entry partner): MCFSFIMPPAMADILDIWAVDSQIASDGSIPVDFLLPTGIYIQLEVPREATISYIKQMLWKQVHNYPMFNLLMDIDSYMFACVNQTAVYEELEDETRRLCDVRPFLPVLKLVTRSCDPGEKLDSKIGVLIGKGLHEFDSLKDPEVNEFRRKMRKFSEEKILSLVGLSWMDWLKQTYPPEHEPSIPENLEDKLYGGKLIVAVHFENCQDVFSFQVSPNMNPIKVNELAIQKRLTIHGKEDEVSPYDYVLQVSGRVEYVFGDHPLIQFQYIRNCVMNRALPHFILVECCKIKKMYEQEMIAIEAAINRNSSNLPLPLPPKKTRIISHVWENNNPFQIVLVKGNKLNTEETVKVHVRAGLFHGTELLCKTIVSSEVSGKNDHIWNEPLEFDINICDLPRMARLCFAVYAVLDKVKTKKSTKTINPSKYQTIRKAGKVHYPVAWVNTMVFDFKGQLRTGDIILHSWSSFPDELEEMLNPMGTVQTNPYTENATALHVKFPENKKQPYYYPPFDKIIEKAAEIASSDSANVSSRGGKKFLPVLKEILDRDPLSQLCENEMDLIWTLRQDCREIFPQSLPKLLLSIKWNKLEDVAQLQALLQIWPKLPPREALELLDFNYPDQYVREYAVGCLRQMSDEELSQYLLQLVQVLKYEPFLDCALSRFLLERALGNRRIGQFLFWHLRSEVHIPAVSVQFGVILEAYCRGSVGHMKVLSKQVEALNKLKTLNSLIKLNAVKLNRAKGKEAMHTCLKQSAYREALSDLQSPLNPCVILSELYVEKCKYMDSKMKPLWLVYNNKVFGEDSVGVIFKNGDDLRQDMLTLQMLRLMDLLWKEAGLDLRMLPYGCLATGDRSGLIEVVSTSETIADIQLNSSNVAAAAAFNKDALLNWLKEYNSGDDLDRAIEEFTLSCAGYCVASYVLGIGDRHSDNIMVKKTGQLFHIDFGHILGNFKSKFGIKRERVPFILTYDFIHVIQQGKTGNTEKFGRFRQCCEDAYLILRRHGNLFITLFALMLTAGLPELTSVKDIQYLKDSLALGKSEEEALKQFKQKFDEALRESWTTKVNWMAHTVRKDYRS
Test: Inhibition of human PI3K p110beta/p85alpha at 10 uM using phosphatidylinositol 4,5-bisphosphate as substrate after 30 mins by HTRF assay relative to control
Assay type: protein-complex assay
Please respond with reported inhibition for every item in the list.
Please respond with the number in % and leave the unit unwritten.

So, COc1ccc(-c2ccc3c(N4CCOC[C@@H]4C)nc(N4CCOC[C@@H]4C)nc3n2)cc1CO ? Its inhibition was 12

So, Oc1cccc(-c2nc(N3CCOCC3)c3oc4ncccc4c3n2)c1 ? Its inhibition was 99

So, C[C@H]1COCCN1c1cc(-c2ccc(NC(=O)Nc3cccnc3)cc2)nn2ccnc12 ? Its inhibition was 24

So, C[C@H]1COCCN1c1cc(-c2ccc(NC(=O)Nc3ccncc3)cc2)nn2ccnc12 ? Its inhibition was 33

====

System: A549
Test: Growth inhibition of human A549 cells at 20 uM after 72 hrs by SRB assay relative to control
Format: functional
Conditions: A549, 72 h, read-out: GI
PARAMETER: inhibition of growth at 20 µM (%)
Please respond with the number in % and leave the unit unwritten.

So, COc1ccc(-c2cc(N3CCOC[C@@H]3C)c3ncc(C4CCN(S(C)(=O)=O)CC4)n3n2)cc1CO ? Its inhibition of growth at 20 µM was 49.6

So, C[C@H]1COCCN1c1cc(-c2ccc3[nH]ccc3c2)nn2c(C3CCN(S(C)(=O)=O)CC3)cnc12 ? Its inhibition of growth at 20 µM was 34

So, C[C@H]1COCCN1c1cc(-c2cnc(N)nc2)nn2c(C3CCN(C(=O)c4cccnc4)CC3)cnc12 ? Its inhibition of growth at 20 µM was 42.1

So, C[C@H]1COCCN1c1cc(-c2cnc(N)nc2)nn2c(C3CCN(Cc4cccnc4)CC3)cnc12 ? Its inhibition of growth at 20 µM was 44.8

So, COc1ccc(-c2cc(N3CCOC[C@@H]3C)c3ncc(C4CCN(C(=O)c5cccnc5)CC4)n3n2)cc1CO ? Its inhibition of growth at 20 µM was 46.8

So, c1cncc(CN2CCC(c3cnc4c(N5CCOCC5)cc(-c5ccc6[nH]ccc6c5)nn34)CC2)c1 ? Its inhibition of growth at 20 µM was 96.5

So, COc1ccc(-c2cc(N3CCOC[C@@H]3C)c3ncc(C4CCN(Cc5cccnc5)CC4)n3n2)cc1CO ? Its inhibition of growth at 20 µM was 65

So, COC(=O)N1CCC(c2cnc3c(N4CCOC[C@@H]4C)cc(-c4cccc(CO)c4)nn23)CC1 ? Its inhibition of growth at 20 µM was 40.4

So, C[C@H]1COCCN1c1cc(-c2ccc3[nH]ccc3c2)nn2c(C3CCN(Cc4cccnc4)CC3)cnc12 ? Its inhibition of growth at 20 µM was 84

So, COC(=O)N1CCC(c2cnc3c(N4CCOC[C@@H]4C)cc(-c4ccc5[nH]ccc5c4)nn23)CC1 ? Its inhibition of growth at 20 µM was 16
